Source: paper PMC5430633

assayedTarget: LC3B wild type (for ITC and NMR) (human, UniProt Q9GZQ8 1-120)
protocolText: ITC; 25 °C, VP-ITC; peptides 0.31 mM titrated into 0.018 mM LC3B proteins in 25 steps; 40 mM Na2HPO4, 80 mM NaCl, pH 7.0; one-site binding model
recordedConditions: both partners purified
measuredParameter: Kd (nM)
Numbers only here, please. The scale is nM.

Exercise: Consider the binder RPEEQMESDNCSGGDDDWTHLS [p62 LIR peptide] . State its measured Kd.
Key: 2010
